Tested on: NCI-H23 lung
Assay: NCI-60 one-dose screen, 48 h (100 = growth as untreated, 0 = no growth, -100 = all killed)
Settings: 10 µM unless noted
Method: Growth inhibition of the NCI-H23 human Non-Small Cell Lung tumor cell line is measured as a screen for anti-cancer activity. Cells are grown in 96 well plates and exposed to the test compound for 48 hours. Compounds are tested at a single concentration, which is 10^-5 M for most compounds. The reported endpoint is percent growth (GI% or GIPRCNT), where numbers from 0 - 100% represent growth inhibition, and numbers from -100% - 0 represent cell death. […]
Compounds without any hit were thinned out: in the full panel of roughly 83,000, 20% have a hit.
Listing of entries alongside the reported growth.
parameter measured: growth (%)

[[record]]
molecule = "CN1C(=O)C(C(=O)/C=C/c2ccccc2C(=O)O)C(=O)N(C)C1=O"
unit_of_measurement = "%"
observed_measurement = 95.1

[[record]]
molecule = "C=CCCCCOc1cccc(/C=C2\\N=C3SCCCN3C2=O)c1"
unit_of_measurement = "%"
observed_measurement = 102

[[record]]
molecule = "CSc1ccc(/C=C2\\C=C(CC(=O)NCc3ccc(C(=O)c4ccccc4)cc3)c3cc(F)ccc32)cc1"
unit_of_measurement = "%"
observed_measurement = -23.2

[[record]]
molecule = "COc1ccc(-c2nn(C(=O)NCCN(C)C)cc2-c2ccncc2)cc1Cl"
unit_of_measurement = "%"
observed_measurement = 63.5

[[record]]
molecule = "COc1ccc2nc3ccccc3c(NCc3ccc(Cl)cc3)c2c1"
unit_of_measurement = "%"
observed_measurement = 28.3

[[record]]
molecule = "COc1ccc(/C(C)=N/NC(=O)c2ccc(S(C)(=O)=O)cc2)cc1OC"
unit_of_measurement = "%"
observed_measurement = 104

[[record]]
molecule = "COC(=O)C(Br)(C(=O)OC)C(Br)C(Br)C(Br)c1ccccc1 (stereo unspecified)"
unit_of_measurement = "%"
observed_measurement = 94.1

[[record]]
molecule = "COCc1nc(NS(=O)(=O)c2ccc(N)cc2)nc(C)c1Br"
unit_of_measurement = "%"
observed_measurement = 97.1

[[record]]
molecule = "CC(C)(C)[Si](C)(C)OC1[C@@H](O[Si](C)(C)C(C)(C)C)[C@@H](CNC(=O)NC(=O)NC(=O)CCl)O[C@H]1n1cnc2c(NC(=O)Nc3ccccc3)ncnc21 (stereo partly specified)"
unit_of_measurement = "%"
observed_measurement = -35.6

[[record]]
molecule = "CCN(CC)c1ccc(/C=N/N=C(N)N)cc1"
unit_of_measurement = "%"
observed_measurement = 65.7

[[record]]
molecule = "COc1ccc(C(=O)C(CN(C)C)c2ccc(OC)cc2)cc1 (stereo unspecified)"
unit_of_measurement = "%"
observed_measurement = 89.8

[[record]]
molecule = "COc1cnc2c(c1)C(=O)c1c-2n(CCCN2CCNCC2)c(=O)c2cc(Cl)ccc12"
unit_of_measurement = "%"
observed_measurement = -63.2

[[record]]
molecule = "Clc1cc2nc(-c3ccccc3)c(-c3ccccc3)nc2cc1Cl"
unit_of_measurement = "%"
observed_measurement = 79.6

[[record]]
molecule = "NS(=O)(=O)c1ccc(CCn2c(SCC(=O)N/N=C/c3cc4ccccc4[nH]3)nc3ccccc3c2=O)cc1"
unit_of_measurement = "%"
observed_measurement = 58.8

[[record]]
molecule = "COc1ccc(/C(C)=N/NC(=O)CSc2nc3ccccc3c(=O)n2CCc2ccc(S(N)(=O)=O)cc2)cc1"
unit_of_measurement = "%"
observed_measurement = 29.9

[[record]]
molecule = "O=C(O/C(=C/c1ccccc1)C(F)(F)F)c1ccccc1"
unit_of_measurement = "%"
observed_measurement = 109

[[record]]
molecule = "CC(C)(C)c1nn(-c2ccccc2)c2c1C(=O)CSC(c1ccccc1Cl)N2 (stereo unspecified)"
unit_of_measurement = "%"
observed_measurement = 38.3

[[record]]
molecule = "COc1ccc(/C=C(\\C#N)c2cc(OC)c(OC)c(OC)c2)cc1"
unit_of_measurement = "%"
observed_measurement = 1.46

[[record]]
molecule = "Cc1ccc(C(=O)CC(=O)C(F)(F)C(F)(F)C(F)(F)F)s1"
unit_of_measurement = "%"
observed_measurement = 105

[[record]]
molecule = "C=C1C(=O)O[C@H]2[C@H]1CC/C(COC(=O)NCc1[nH]nc3ccccc13)=C\\CC[C@@]1(C)O[C@@H]21"
unit_of_measurement = "%"
observed_measurement = 69.4

[[record]]
molecule = "CCOC(=O)C1C(=O)C=C(c2ccccc2)CC1c1sc(N(C)Cc2ccccc2)nc1Cl (stereo unspecified)"
unit_of_measurement = "%"
observed_measurement = 89.1

[[record]]
molecule = "CC(C)(C)OC(=O)N1CCCN(CCNc2nccc(-c3c(-c4cccc(O)c4)nc4sccn34)n2)S1(=O)=O"
unit_of_measurement = "%"
observed_measurement = 94.1

[[record]]
molecule = "CCCCn1cnc2c(SCc3ccc([N+](=O)[O-])cc3)nc(N)nc21"
unit_of_measurement = "%"
observed_measurement = 96.5

[[record]]
molecule = "COc1ccc(C2=NNC(c3ccc(Oc4nc5c(c(=O)n(C)c(=O)n5C)n4C)c(OC)c3)C2)cc1 (stereo unspecified)"
unit_of_measurement = "%"
observed_measurement = 103

[[record]]
molecule = "CC[C@H](C)[C@H](N)C(=O)O"
unit_of_measurement = "%"
observed_measurement = 111

[[record]]
molecule = "Nc1c(C(=O)C[C@@H](N)CO)ccc2c1C(=O)CCO2"
unit_of_measurement = "%"
observed_measurement = 55.2

[[record]]
molecule = "Cc1c(C(N)=O)sc2ncn(CC(=O)NN=C3CCCCC3)c(=O)c12"
unit_of_measurement = "%"
observed_measurement = 111

[[record]]
molecule = "NC(N)=NC1CCCCC1"
unit_of_measurement = "%"
observed_measurement = 101

[[record]]
molecule = "S=C(Cc1ccccc1)N1CCN(c2ccccc2Cl)CC1"
unit_of_measurement = "%"
observed_measurement = 100

[[record]]
molecule = "CCOC(=O)c1ccc2c(c1)[n+](=O)c(C(=O)c1ccc3ccccc3c1)c(C(F)(F)F)n2[O-]"
unit_of_measurement = "%"
observed_measurement = -88.4

[[record]]
molecule = "CCCCCCCCCCCC1=NC(C)(C)CN1C(C)C"
unit_of_measurement = "%"
observed_measurement = 49.8

[[record]]
molecule = "ClCCn1cnc2c(SCc3ccccc3Cl)ncnc21"
unit_of_measurement = "%"
observed_measurement = 53.1

[[record]]
molecule = "COc1ccc(/C=C/c2nc3ccccc3c(=O)n2-c2ccc(C#Cc3ccc(C(C)(C)C)cc3)cc2C)c(OC)c1"
unit_of_measurement = "%"
observed_measurement = 94

[[record]]
molecule = "COc1cc(NCCC2CCCCN2)c2ncccc2c1OC (stereo unspecified)"
unit_of_measurement = "%"
observed_measurement = 49.1

[[record]]
molecule = "C[C@@H]1CC2C3CCC4=CC(=O)C=C[C@]4(C)[C@@]3(Cl)[C@@H](O)C[C@]2(C)[C@@]1(OC(=O)c1ccco1)C(=O)CCl (stereo partly specified)"
unit_of_measurement = "%"
observed_measurement = 66.5

[[record]]
molecule = "COc1ccc(-c2cc(C(=O)Nc3ccc(C)cc3)nc3[nH]c(=O)sc23)cc1"
unit_of_measurement = "%"
observed_measurement = 75.4

[[record]]
molecule = "Clc1ccc(Cl)c(N=Cc2ccc3c(c2)OCO3)c1"
unit_of_measurement = "%"
observed_measurement = 99.2

[[record]]
molecule = "Cn1c(=O)c2c(nc(N/N=C/c3ccccc3Cl)n2C)n(C)c1=O"
unit_of_measurement = "%"
observed_measurement = 94.4

[[record]]
molecule = "O=C(c1ccc(OCCN2CCCCC2)cc1)c1c(-c2ccc(O)cc2)sc2cc(O)ccc12"
unit_of_measurement = "%"
observed_measurement = 82.5

[[record]]
molecule = "CC(C)c1ccc(-c2cnc3nonc3n2)cc1"
unit_of_measurement = "%"
observed_measurement = 56.2

[[record]]
molecule = "O=c1c2cc(Br)cc(Br)c2nc(-c2ccc(Cl)cc2)n1/N=C\\c1ccccc1F"
unit_of_measurement = "%"
observed_measurement = 62.9

